Target: GABAA receptor (TBPS binding site), rat brain cortical membranes
Experiment: [35S]-TBPS binding assay, rat brain cortical membranes in the presence of 5 mM GABA
Details: inhibition of 3 nM [35S]-TBPS binding
pIC50: −log10 of the molar value.
Recorded pIC50 values for a group of compounds are listed next.

As a guide, the following entries are already answered.
>  <mol>
COC[C@@]1(O)CC[C@H]2[C@H](CC[C@@H]3[C@@H]2CC[C@]2(C)[C@@H](C(=O)Nc4ccc(-n5ccc(C)n5)nc4C)CC[C@@H]32)C1

>  <endpoint value>
> 7.00

$$$$
>  <mol>
COC[C@@]1(O)CC[C@H]2[C@H](CC[C@@H]3[C@@H]2CC[C@]2(C)[C@@H](C(=O)Nc4nc(C)ccc4Cl)CC[C@@H]32)C1

>  <endpoint value>
6.00 to 7.00

$$$$
>  <mol>
CCOC[C@@]1(O)CC[C@H]2[C@H](CC[C@@H]3[C@@H]2CC[C@]2(C)[C@@H](C(=O)Nc4ccnc(C)n4)CC[C@@H]32)C1

>  <endpoint value>
> 7.00

$$$$

Prompt: Value lookup for pIC50; key = `CCOC[C@@]1(O)CC[C@@]2(CC)[C@H](CC[C@H]3[C@@H]4CC[C@H](C(=O)Nc5cc(C)nn5C)[C@@]4(C)CC[C@@H]32)C1`
Completion: > 7.00

Prompt: // returns reported pIC50 for input `CCOC[C@@]1(O)CC[C@H]2[C@H](CC[C@@H]3[C@@H]2CC[C@]2(C)[C@@H](C(=O)Nc4ncc(C#N)cc4Cl)CC[C@@H]32)C1`
Completion: > 7.00

====

Molecular target: GABAA receptor (TBPS binding site), rat brain cortical membranes
Experiment: [35S]-TBPS binding assay, rat brain cortical membranes in the presence of 5 mM GABA
Settings: inhibition of 3 nM [35S]-TBPS binding
recorded endpoint: IC50

See these solved cases before continuing.
>  <mol>
CCOC[C@@]1(O)CC[C@H]2[C@H](CC[C@@H]3[C@@H]2CC[C@]2(C)[C@@H](C(=O)Nc4ccccn4)CC[C@@H]32)C1

>  <assayed system>
GABAA receptor (TBPS binding site), rat brain cortical membranes

>  <IC50>
< 100 nM

$$$$
>  <mol>
CCOC[C@@]1(O)CC[C@H]2[C@H](CC[C@@H]3[C@@H]2CC[C@]2(C)[C@@H](C(=O)Nc4cccc(C)n4)CC[C@@H]32)C1

>  <assayed system>
GABAA receptor (TBPS binding site), rat brain cortical membranes

>  <IC50>
< 100 nM

$$$$
>  <mol>
COC[C@@]1(O)CC[C@H]2[C@H](CC[C@@H]3[C@@H]2CC[C@]2(C)[C@@H](C(=O)Nc4ccc(C#N)nc4C)CC[C@@H]32)C1

>  <assayed system>
GABAA receptor (TBPS binding site), rat brain cortical membranes

>  <IC50>
< 100 nM

$$$$
>  <mol>
COC[C@@]1(O)CC[C@H]2[C@H](CC[C@@H]3[C@@H]2CC[C@]2(C)[C@@H](C(=O)Nc4ccc(C)nc4)CC[C@@H]32)C1

>  <assayed system>
GABAA receptor (TBPS binding site), rat brain cortical membranes

>  <IC50>
< 100 nM

$$$$
>  <mol>
COC[C@@]1(O)CC[C@H]2[C@H](CC[C@@H]3[C@@H]2CC[C@]2(C)[C@@H](C(=O)Nc4cccnc4C)CC[C@@H]32)C1

>  <assayed system>
GABAA receptor (TBPS binding site), rat brain cortical membranes

>  <IC50>
< 100 nM

$$$$
>  <mol>
COC[C@@]1(O)CC[C@H]2[C@H](CC[C@@H]3[C@@H]2CC[C@]2(C)[C@@H](C(=O)Nc4cccc(N5CCCC5=O)n4)CC[C@@H]32)C1

>  <assayed system>
GABAA receptor (TBPS binding site), rat brain cortical membranes

>  <IC50>
< 100 nM

$$$$
>  <mol>
CCOC[C@@]1(O)CC[C@H]2[C@H](CC[C@@H]3[C@@H]2CC[C@]2(C)[C@@H](C(=O)Nc4ncc(C#N)cc4C)CC[C@@H]32)C1

>  <assayed system>
GABAA receptor (TBPS binding site), rat brain cortical membranes

>  <IC50>
100 to 1000 nM

$$$$
>  <mol>
CCOC[C@@]1(O)CC[C@H]2[C@H](CC[C@@H]3[C@@H]2CC[C@]2(C)[C@@H](C(=O)Nc4cccnc4)CC[C@@H]32)C1

>  <assayed system>
GABAA receptor (TBPS binding site), rat brain cortical membranes

>  <IC50>
100 to 1000 nM

$$$$
>  <mol>
CCOC[C@@]1(O)CC[C@H]2[C@H](CC[C@@H]3[C@@H]2CC[C@]2(C)[C@@H](C(=O)Nc4ccnn4C4CCCC4)CC[C@@H]32)C1

>  <assayed system>
GABAA receptor (TBPS binding site), rat brain cortical membranes

>  <IC50>
< 100 nM

$$$$
>  <mol>
CCOC[C@@]1(O)CC[C@H]2[C@H](CC[C@@H]3[C@@H]2CC[C@]2(C)[C@@H](C(=O)Nc4c(C#N)cnn4C)CC[C@@H]32)C1

>  <assayed system>
GABAA receptor (TBPS binding site), rat brain cortical membranes

>  <IC50>
> 1000 nM

$$$$

Now let's try a different one.
Prompt: // map `Cc1nc2ccccn2c1NC(=O)[C@H]1CC[C@H]2[C@@H]3CC[C@@H]4C[C@](C)(O)CC[C@@H]4[C@H]3CC[C@]12C` to recorded IC50 (system: GABAA receptor (TBPS binding site), rat brain cortical membranes)
Completion: 100 to 1000 nM
